Below, each entry is listed alongside its reported EC50.
Test system: primary human fibroblasts derived from IPF patients (LL29 cells) treated with TGF-β1
Test: Inhibition of the fibrotic process: αSMA staining in TGF-β1 treated LL29 fibroblasts
Assay type: cell-based
Reported conditions: Homo sapiens, Fibroblast, 96 h, % cells positive for αSMA, TGF-β1 20 ng/mL, 4 days
Provide the reading as a plain figure in nM.

Compound structure | Assay value
O=C(Nc1ccc(F)cc1)c1n[nH]c2ccc(-c3cnc4n3CCNC4)cc12 | 540
C[C@H]1C[C@H](NC(=O)c2n[nH]c3ccc(-c4cnn(C)c4)cc23)CCN1CC(C)(C)F | 199

Attention now turns to another entry.
Measured EC50 of Cc1ncc(-c2ccc3[nH]nc(C(=O)NC4CCN(CC(C)(C)F)CC4)c3c2)n1C : 1360
